These entries and their values trace back to ChEMBL document CHEMBL1148278.

# MGC per record follows
systemUnderTest: NAD-dependent histone deacetylase SIR2 (Saccharomyces cerevisiae S288c)
assayExplanation: Sirtuin 2 inhibitory activity and was reported as minimum growth-stimulating concentration in Saccharomyces cerevisiae
Report only the number, with the unit µM understood.

Guide cases for MGC, answers given:
compound	systemUnderTest	experimentalEndpoint	unitAnnotation	readoutValue
O=C1CCc2cc3ccccc3cc2O1	NAD-dependent histone deacetylase SIR2 (Saccharomyces cerevisiae S288c)	MGC	µM	15
COc1cc2ccccc2c2c1OC(=O)CC2	NAD-dependent histone deacetylase SIR2 (Saccharomyces cerevisiae S288c)	MGC	µM	1.5
O=C1CCc2ccc3c(O)cccc3c2O1	NAD-dependent histone deacetylase SIR2 (Saccharomyces cerevisiae S288c)	MGC	µM	21

Kindly consider the entry below.
Lookup: What MGC value was documented for this compound, `O=C1CCc2c(c(OCc3ccccc3)cc3ccccc23)O1` ?
Found: 0.97
